Attribute: pIC50
system: Norepinephrine transporter (Rattus norvegicus, UniProt Q9WTR4)
Sequence (Q9WTR4 whole entry): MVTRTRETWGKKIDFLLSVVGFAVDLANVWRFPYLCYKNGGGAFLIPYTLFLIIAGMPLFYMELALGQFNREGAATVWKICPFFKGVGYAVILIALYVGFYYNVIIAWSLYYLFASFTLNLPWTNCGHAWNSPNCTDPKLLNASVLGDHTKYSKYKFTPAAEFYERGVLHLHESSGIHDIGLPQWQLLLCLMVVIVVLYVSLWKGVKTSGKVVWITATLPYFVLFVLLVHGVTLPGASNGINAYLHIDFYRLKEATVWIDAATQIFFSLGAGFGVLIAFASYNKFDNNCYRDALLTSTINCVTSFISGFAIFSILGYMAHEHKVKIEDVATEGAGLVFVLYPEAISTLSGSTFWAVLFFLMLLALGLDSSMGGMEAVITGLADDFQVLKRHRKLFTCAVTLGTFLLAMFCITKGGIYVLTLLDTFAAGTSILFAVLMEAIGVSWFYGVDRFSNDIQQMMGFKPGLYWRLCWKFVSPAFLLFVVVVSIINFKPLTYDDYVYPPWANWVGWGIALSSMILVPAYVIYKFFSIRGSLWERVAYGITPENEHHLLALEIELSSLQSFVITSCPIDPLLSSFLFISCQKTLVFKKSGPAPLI
pIC50: −log10 of the molar value.

| compound | system | readoutQualifier | pIC50 |
| --- | --- | --- | --- |
| N#Cc1ccc(CNC2CCC(C(c3ccccc3)c3ccccc3)NC2)cc1 (stereo not given) | Norepinephrine transporter (Rattus norvegicus, UniProt Q9WTR4) | = | 5.78 |
| Fc1ccc(CCN2CCN3CC2CCC3C(c2ccccc2)c2ccccc2)cc1 (stereo not given) | Norepinephrine transporter (Rattus norvegicus, UniProt Q9WTR4) | < | 5.00 |
| CN1CCN2CC1CCC2C(c1ccccc1)c1ccccc1 (stereo not given) | Norepinephrine transporter (Rattus norvegicus, UniProt Q9WTR4) | = | 4.22 |
| CN(Cc1ccc(F)cc1)C1CCC(C(c2ccccc2)c2ccccc2)N(C)C1 (stereo not given) | Norepinephrine transporter (Rattus norvegicus, UniProt Q9WTR4) | = | 5.15 |
| COc1ccc(CN2CCN3C[C@H]2CC[C@@H]3C(c2ccccc2)c2ccccc2)cc1 | Norepinephrine transporter (Rattus norvegicus, UniProt Q9WTR4) | < | 5.00 |

----------
system: Monoamine transporters; Norepininephrine & dopamine (Rattus norvegicus) (UniProt P23977+Q9WTR4)
measurementDescription: Relative binding affinity for norepinephrine and dopamine transporter, ratio of IC50
Assay type: protein assay

| compound | readoutQualifier | Selectivity |
| --- | --- | --- |
| COc1ccc(CN2CCN3C[C@@H]2CC[C@H]3C(c2ccccc2)c2ccccc2)cc1 | > | 444 |
| COc1ccc(CNC2CCC(C(c3ccccc3)c3ccccc3)NC2)cc1 (centres undefined) | = | 23 |
| COc1ccc(CN2CCN3C[C@H]2CC[C@@H]3C(c2ccccc2)c2ccccc2)cc1 | > | 30 |
| CN1CCN2CC1CCC2C(c1ccccc1)c1ccccc1 (centres undefined) | = | 13 |
| N#Cc1ccc(CNC2CCC(C(c3ccccc3)c3ccccc3)NC2)cc1 (centres undefined) | = | 148 |
| CN(Cc1ccc(F)cc1)C1CCC(C(c2ccccc2)c2ccccc2)N(C)C1 (centres undefined) | = | 31 |
| Fc1ccc(CCN2CCN3CC2CCC3C(c2ccccc2)c2ccccc2)cc1 (centres undefined) | > | 18 |
| Fc1ccc(CNC2CCC(C(c3ccccc3)c3ccccc3)N(Cc3ccc(F)cc3)C2)cc1 (centres undefined) | = | 12 |
| O=S(=O)(Nc1ccc(CN2CCN3CC2CCC3C(c2ccccc2)c2ccccc2)cc1)c1ccc(Cl)cc1 (centres undefined) | = | 9 |

----------
pIC50: −log10 of the molar value.
For reference, pIC50 measured on Sodium-dependent serotonin transporter (Rattus norvegicus, UniProt P31652):

| compound | system | pIC50 |
| --- | --- | --- |
| CN(Cc1ccc(F)cc1)C1CCC(C(c2ccccc2)c2ccccc2)N(C)C1 (centres undefined) | Sodium-dependent serotonin transporter (Rattus norvegicus, UniProt P31652) | 5.63 |
| COc1ccc(CN2CCN3C[C@@H]2CC[C@H]3C(c2ccccc2)c2ccccc2)cc1 | Sodium-dependent serotonin transporter (Rattus norvegicus, UniProt P31652) | 5.06 |
| CN1CCN2CC1CCC2C(c1ccccc1)c1ccccc1 (centres undefined) | Sodium-dependent serotonin transporter (Rattus norvegicus, UniProt P31652) | 3.80 |
| COc1ccc(CNC2CCC(C(c3ccccc3)c3ccccc3)NC2)cc1 (centres undefined) | Sodium-dependent serotonin transporter (Rattus norvegicus, UniProt P31652) | 5.98 |
